System: NCI-H226 lung
Test: NCI-60 one-dose screen, 48 h
Settings: 10 µM unless noted
This is part of a sample that, as a whole, favours compounds with a hit. Of some 83,000 tested, about 20% had one in any assay. The source made the active and inactive calls. The calls were made as follows: active = growth percent below 10; inactive = the rest.
One label from this list, please: active, inactive

Worked cases, answers included:
smiles_string	group
CC(=O)n1cc(C=O)c2ccccc21	inactive
C=C(C)[C@@H]1CC[C@]2(C(=O)OC)CC[C@]3(C)[C@H](CC[C@@H]4[C@@]5(C)CC/C(=N\OCCC(=NCCC#N)NOCCC#N)C(C)(C)[C@@H]5CC[C@]43C)[C@@H]12	active
CC(C)(C)c1cc(C(=O)Nc2cc3ccccc3cc2C(=O)NCCN)cc(C(C)(C)C)c1	active
COC(=O)[C@]12CCC(C)(C)C[C@H]1C1=CC[C@@H]3[C@@]4(C)C/C(=C/c5cccnc5)C(=O)C(C)(C)[C@@H]4CC[C@@]3(C)[C@]1(C)CC2	active
C=C(C)[C@@H]1CC[C@]2(C(=O)OC)CC[C@]3(C)[C@H](CC[C@@H]4[C@@](C)(CCc5nn[nH]n5)[C@H](C(=C)C)CC[C@]43C)[C@@H]12	active

[ask] Recorded call for `C=C(CN=[N+]=[N-])[C@@H]1CC[C@]2(C)[C@H](CC[C@@H]3[C@H]4[C@H]5OC(=O)[C@@]4(CCC5(C)C)CC[C@]32C)[C@@]1(C)CCC#N` ?
[reply] inactive

[ask] Please let me know the test result on file for `C[C@H]1[C@H](C)CC[C@]2(C(=O)N3CCN(C)CC3)CC[C@]3(C)C(=CC[C@@H]4[C@@]5(C)C/C(=C/c6ccco6)C(=O)C(C)(C)[C@@H]5CC[C@]43C)[C@H]12` .
[reply] inactive
